This collection of values is drawn from ChEMBL document CHEMBL3727365.

# Tested on: Jurkat
# test-details: Inhibition of PHA/TPA-induced IL2 release in human Jurkat T cells preincubated for 10 mins followed by PHA/TPA stimulation measured after […] by ELISA
# Format: functional, cell-based
reported-endpoint: IC50

Completed entries (count: 2):
- structure-notation: "Cn1nc(-c2ccco2)cc1-c1ccc(C(=O)Nc2c(F)cncc2F)s1"
  assayed-target: "Jurkat"
  IC50: "< 0.05 µM"
- structure-notation: "Cn1nc(-c2ccco2)cc1-c1ccc(C(=O)Nc2ncc(Cl)cc2F)s1"
  assayed-target: "Jurkat"
  IC50: "< 0.05 µM"

Proceed to the following item.
Recorded IC50 for `Cn1nc(-c2ccccc2F)cc1-c1ccc(C(=O)Nc2c(F)cncc2F)s1` , please?
< 0.05 µM
